The measurements presented in this section are drawn from patent US9504729B2.

Test system: angiogenesis genes in dermal microvascular endothelial cells
Test details: Real time RT-PCR of angiogenesis gene expression during endothelial tube formation
Type: cell-based
Measurement conditions: 1 μM SM, 24 hours
Please provide measured Log2 fold-change of gene expression: Egf17 for the entries that follow.
I only need the number, thanks.

Response field Log2 fold-change of gene expression: Egf17 (angiogenesis genes in dermal microvascular endothelial cells) for item `CC1CCN(CC[S-])CC1.O.O.[Cl][Pt+]` : −3.3

Response field Log2 fold-change of gene expression: Egf17 (angiogenesis genes in dermal microvascular endothelial cells) for item COC(=O)C1CC(=O)C(C(=O)OC)CC1=O (stereo not drawn) : −2.6

# O=C1C(=Cc2ccccc2)C(NC2CCCCC2)c2ccccc21 (stereo not drawn) with angiogenesis genes in dermal microvascular endothelial cells: Log2 fold-change of gene expression: Egf17 is −3.3

Value sought: Log2 fold-change of gene expression: Egf17, system angiogenesis genes in dermal microvascular endothelial cells, item COc1ccc(CC2C(=O)NC(C)C(=O)N(C)C3Cc4ccc(cc4)Oc4cc(ccc4O)CC(C(=O)NC(C)C(=O)NC(C)C(=O)N2C)N(C)C3=O)cc1 (stereo not drawn) . Result: −2.3

// returns Log2 fold-change of gene expression: Egf17 for COc1cc2cc(c1Cl)N(C)C(=O)CC(OC(=O)C(C)C)C1(C)OC1C(C)C1CC(O)(NC(=O)O1)C(OC)/C=C/C=C(\C)C2 (stereo not drawn) with angiogenesis genes in dermal microvascular endothelial cells; value = −1.2

Field Log2 fold-change of gene expression: Egf17 (system: angiogenesis genes in dermal microvascular endothelial cells) for entry `CCC(=O)OCN1C(=O)C=CC1=O` = −3.8

----------
System: angiogenesis genes in dermal microvascular endothelial cells
Test details: Real time RT-PCR of angiogenesis gene expression during endothelial tube formation
Type: cell-based
Measurement conditions: 1 μM SM, 24 hours; 3rd listing (r145)
Exercise: state measured Log2 fold-change of gene expression: B2M for each of the molecules provided.
Just the number, please, no unit after it.

Param item: `CC1CCN(CC[S-])CC1.O.O.[Cl][Pt+]` ; param system: angiogenesis genes in dermal microvascular endothelial cells; output Log2 fold-change of gene expression: B2M: −0.4

The recorded Log2 fold-change of gene expression: B2M with angiogenesis genes in dermal microvascular endothelial cells for COc1ccc(CC2C(=O)NC(C)C(=O)N(C)C3Cc4ccc(cc4)Oc4cc(ccc4O)CC(C(=O)NC(C)C(=O)NC(C)C(=O)N2C)N(C)C3=O)cc1 (stereo not drawn) was 0.5

Form field, Log2 fold-change of gene expression: B2M with angiogenesis genes in dermal microvascular endothelial cells, item COc1cc2cc(c1Cl)N(C)C(=O)CC(OC(=O)C(C)C)C1(C)OC1C(C)C1CC(O)(NC(=O)O1)C(OC)/C=C/C=C(\C)C2 (stereo not drawn) : 0.0

Given the molecule `CCC(=O)OCN1C(=O)C=CC1=O` and test system angiogenesis genes in dermal microvascular endothelial cells, the measured Log2 fold-change of gene expression: B2M is −1.4

Observed Log2 fold-change of gene expression: B2M on angiogenesis genes in dermal microvascular endothelial cells, entry COC(=O)C1CC(=O)C(C(=O)OC)CC1=O (stereo not drawn) , equals −0.2

Simply: O=C1C(=Cc2ccccc2)C(NC2CCCCC2)c2ccccc21 (stereo not drawn) , angiogenesis genes in dermal microvascular endothelial cells, Log2 fold-change of gene expression: B2M = −0.7
